Below, each entry is listed alongside its reported % Inhibition (FPRP inhibition of [^3 H]PGF2α binding).
# System: prostaglandin F2α receptor (FP)
# assay_explanation: Effect of intracellular messenger altering agents on [3H]PGF2α binding and on FPRP inhibition of it
# Type: cell-based
# protocol_conditions: in presence of the agent at the concentration/time given
Please give a number only; it is taken to be in %.

compound: CCN(CC)CCCC(C)Nc1ccnc2cc(Cl)ccc12 (centres unmarked)
tested_system: prostaglandin F2α receptor (FP)
measurement: 59
//
compound: C=C1[C@@H](O)[C@@H]2O[C@]3(CC[C@H](/C=C/[C@@H](C)[C@@H]4CC(C)=C[C@@]5(O[C@H](C[C@@](C)(O)C(=O)O)CC[C@H]5O)O4)O3)CC[C@H]2O[C@@H]1[C@@H](O)C[C@H](C)[C@H]1O[C@@]2(CCCCO2)CC[C@H]1C
tested_system: prostaglandin F2α receptor (FP)
measurement: 52
//
compound: Nc1ncnc2c1nc(Br)n2[C@@H]1O[C@@H]2COP(=O)(O)O[C@H]2[C@H]1O
tested_system: prostaglandin F2α receptor (FP)
measurement: 45
//
compound: CCCCCCCCCCCCCC(=O)OC1C(C)C2(O)C(C=C(CO)CC3(O)C(=O)C(C)=CC32)C2C(C)(C)C12OC(C)=O (centres unmarked) [Phorbol 12-myristate 13-acetate, phorbol 12-myristate 13-acetate]
tested_system: prostaglandin F2α receptor (FP)
measurement: 50
//
compound: CCCCC[C@H](O)/C=C/[C@@H]1[C@@H](C/C=C\CCCC(=O)O)[C@@H](O)C[C@H]1O
tested_system: prostaglandin F2α receptor (FP)
measurement: 45
//
compound: CNc1ccc2oc(C[C@H]3O[C@@]4(CC[C@H]3C)O[C@H]([C@H](C)C(=O)c3ccc[nH]3)[C@H](C)C[C@H]4C)nc2c1C(=O)O
tested_system: prostaglandin F2α receptor (FP)
measurement: 50
//
compound: CCCCC[C@H](O)/C=C/[C@H]1[C@H](O)CC(=O)[C@@H]1CCCCCCC(=O)O [PGE1, prostaglandin E1]
tested_system: prostaglandin F2α receptor (FP)
measurement: 49

Recall the recorded % Inhibition (FPRP inhibition of [^3 H]PGF2α binding) for C[C@H]1CCC/C=C/[C@@H]2C[C@H](O)C[C@H]2[C@H](O)/C=C/C(=O)O1 with prostaglandin F2α receptor (FP) and state it. 70

Value source: patent US5747660A
